- System: KM12 colon
- MEASUREMENT PROTOCOL: NCI-60 one-dose screen, 48 h (100 = growth as untreated, 0 = no growth, -100 = all killed)
- CONDITION DETAILS: 10 µM unless noted
Compounds without any hit were thinned out: in the full panel of roughly 83,000, 20% have a hit.
MEASUREMENT NAME: growth (%)
Your answer should be a plain number; it is taken to be in %.

Example molecules with recorded growth:
{"columns": ["SMILES REPR", "growth, %"],
 "data": [
  ["Nc1ccccc1NC(=O)c1ccc(NC(=O)C/C=C/c2cccnc2)cn1", 26.2],
  ["C=CCn1c(SCC(=O)Nc2ccc(C(=O)/C=C/c3ccc(Br)cc3)cc2)nnc1-c1c[nH]c2ccccc12", 89.3],
  ["Cc1cc2nc(C(Cl)Cl)nc(-c3cccs3)n2n1", -26.4],
  ["CN(C)CCNC(=O)c1ccc(-c2nc3ccc4[nH]ncc4c3c3c2CCC3)cc1", 4.08],
  ["Cn1cc(-c2nc(N)nnc2-c2c[nH]c3ccccc23)c2cc(Br)ccc21", 18.1],
  ["N#Cc1c(-c2cccs2)cc(-c2cnccn2)nc1SCC(=O)Nc1ccc(Br)cc1", 97.7],
  ["N#Cc1cccc(CN2CCc3ncn(Cc4ccc(Cl)cc4)c(=O)c3C2)c1", 29.7]
]}

Query string: Could you tell me which growth is on file for Cc1ccc(-n2cc(/C=C/C(=O)c3ccc(O)cc3)c(-c3ccc(S(C)(=O)=O)cc3)n2)cc1 ?
Result string: 38.3

----------
- System: CAKI-1 renal
- MEASUREMENT PROTOCOL: NCI-60 one-dose screen, 48 h (100 = growth as untreated, 0 = no growth, -100 = all killed)
- CONDITION DETAILS: 10 µM unless noted
Compounds without any hit were thinned out: in the full panel of roughly 83,000, 20% have a hit.
MEASUREMENT NAME: growth (%)
Your answer should be a plain number; it is taken to be in %.

Example molecules with recorded growth:
{"columns": ["MOLECULE", "growth (%)"],
 "data": [
  ["O=C(O)c1ccc(-n2cc(CNc3cccc(Cl)c3)c(-c3ccc(F)cc3)n2)cc1", 89.9],
  ["COc1cc2nc(Cl)nc(Nc3cccc(C4=Nc5c(N)nc(N)nc5NC(c5ccc(F)cc5)C4)c3)c2cc1OC (configuration not stated)", 88.8],
  ["COC(=O)c1[nH]nc2c1C1(C(=O)N(C)c3ccccc31)C(C#N)=C(N)O2 (configuration not stated)", 91.1],
  ["CCOC(=O)C(=O)/C(=C\\c1ccc(Cl)cc1)C(=O)N1C(=S)NC(=O)C1CC(C)C (configuration not stated)", 91.3],
  ["COc1cc(/C=C/C(=O)c2ccc(NC(=O)CSc3nnc(-c4ccc(-c5nc6ccc(Cl)cc6[nH]5)cc4)o3)cc2)cc(OC)c1OC", 91.2],
  ["COc1cc(Cn2cc3c(c2)-c2onc(CN4CCCC4)c2CC3)cc(OC)c1OC", 91.7]
]}

Below: the item to evaluate.
Query string: Could you tell me which growth is on file for Nc1ncc(-c2ccc(NS(=O)(=O)c3ccc(Cl)c(Cl)c3)cc2)[nH]1 ?
Result string: 71.6

----------
- Test system: A498 renal
- MEASUREMENT PROTOCOL: NCI-60 one-dose screen, 48 h (100 = growth as untreated, 0 = no growth, -100 = all killed)
- CONDITION DETAILS: 10 µM unless noted
- Procedure: Growth inhibition of the A498 human tumor cell line is measured as a screen for anti-cancer activity. Cells are grown in 96 well plates and exposed to the test compound for 48 hours. Compounds are tested at a single concentration, which is 10^-5 M for most compounds. The reported endpoint is percent growth (GI% or GIPRCNT), where numbers from 0 - 100% represent growth inhibition, and numbers from -100% - 0 represent cell death. For example, a value of 40 represents 60% growth inhibition. […]
This is part of a sample that, as a whole, favours compounds with a hit. Of some 83,000 tested, about 20% had one in any assay.
MEASUREMENT NAME: growth (%)
Your answer should be a plain number; it is taken to be in %.

Query string: Could you tell me which growth is on file for CCNC(=O)N1CCc2cc(OC)c(OCCc3ccc(OC)cc3)cc2C1c1ccc(OC)cc1C (centres undefined) ?
Result string: -11.1

Query string: Could you tell me which growth is on file for COc1ccccc1NC1=C(Cl)C(=O)c2nc(C)ccc2C1=O ?
Result string: 71.8

Query string: Could you tell me which growth is on file for Cc1nn(-c2ccccc2)c2ncnc(N/N=C/c3ccccc3O)c12 ?
Result string: 58.4

Query string: Could you tell me which growth is on file for CC1(C)CC[C@]2(C(=O)N3CCOCC3)CC[C@]3(C)C(=CC[C@@H]4[C@@]5(C)C/C(=C/c6ccccn6)C(=O)C(C)(C)[C@@H]5CC[C@]43C)[C@@H]2C1 ?
Result string: -3.14

# credit: PubChem BioAssay (NCI)
